System: Huh-7
Assay: Antiproliferative activity against human Huh-7 cells assessed as growth inhibition at 100 ug/mL incubated for 48 hrs by SRB assay relative to control
Type: functional
Conditions: read-out: GI
Please assign a class to every record based on measured inhibition of growth at 100 µg/mL, with ranges 0 (below 60%), 1 (60% to below 70%), 2 (70% or more)

[
  {
    "structure-smiles-string": "COc1cccc(/C=N/NC(=O)c2nnn(-c3ccc(Cl)cc3)c2C)c1OC",
    "system-under-test": "Huh-7",
    "label-class": 1
  },
  {
    "structure-smiles-string": "COc1cc(/C=N/NC(=O)c2nnn(-c3ccc(Cl)cc3)c2C)cc(OC)c1OC",
    "system-under-test": "Huh-7",
    "label-class": 2
  },
  {
    "structure-smiles-string": "COc1cc(/C=N/NC(=O)c2nnn(-c3ccc(Br)cc3)c2C)cc(OC)c1OC",
    "system-under-test": "Huh-7",
    "label-class": 2
  },
  {
    "structure-smiles-string": "COc1cccc2c1C(=O)c1c(O)c3c(c(O)c1C2=O)C[C@@](O)(C(=O)CO)C[C@@H]3O[C@H]1C[C@H](N)[C@H](O)[C@H](C)O1",
    "system-under-test": "Huh-7",
    "label-class": 1
  },
  {
    "structure-smiles-string": "Cc1c(C(=O)N/N=C/c2ccccc2)nnn1-c1ccc(F)cc1",
    "system-under-test": "Huh-7",
    "label-class": 0
  },
  {
    "structure-smiles-string": "Cc1c(C(=O)N/N=C/c2ccccc2)nnn1-c1ccc(Br)cc1",
    "system-under-test": "Huh-7",
    "label-class": 1
  }
]

[in] Place this compound in its band: COc1cccc(/C=N/NC(=O)c2nnn(-c3ccc([N+](=O)[O-])cc3)c2C)c1OC
[out] 0

----------
System: HepG2
Assay: Cytotoxicity against human HepG2 cells assessed as inhibition of cell growth incubated for 48 hrs by SRB assay
Type: functional, cell-based
Details: HepG2, 48 h
experimental-endpoint: IC50 (µM)
Answers are plain numbers, in µM.

Worked examples follow.
[
  {
    "structure-smiles-string": "COc1cccc(/C=N/NC(=O)c2nnn(-c3ccc(Cl)cc3)c2C)c1OC",
    "units-label": "µM",
    "IC50": 31.2
  },
  {
    "structure-smiles-string": "COc1cc(/C=N/NC(=O)c2nnn(-c3ccc(F)cc3)c2C)cc(OC)c1OC",
    "units-label": "µM",
    "IC50": 35.7
  }
]

The record that follows has no IC50 shown yet.
IC50 recorded for this compound, COc1cccc2c1C(=O)c1c(O)c3c(c(O)c1C2=O)C[C@@](O)(C(=O)CO)C[C@@H]3O[C@H]1C[C@H](N)[C@H](O)[C@H](C)O1 , is 11

----------
Test system: MCF7
Assay: Antiproliferative activity against human MCF7 cells assessed as growth inhibition at 100 ug/mL incubated for 48 hrs by SRB assay relative to control
Type: functional
Conditions: read-out: GI
Please assign a class to every record based on measured inhibition of growth at 100 µg/mL, with ranges class A = under 60%, class B = from 60% up to 70%, class C = 70% and over

[
  {
    "structure-smiles-string": "COc1cc(/C=N/NC(=O)c2nnn(-c3ccc(Cl)cc3)c2C)cc(OC)c1OC",
    "label-class": "class A"
  }
]

Turning now to a further record.
[in] Place this molecule in its band: Cc1c(C(=O)N/N=C/c2ccccc2)nnn1-c1ccc(F)cc1
[out] class C
